# Assay Notes: protein stability index of a GFP-peptide fusion (GPS, HEK-293T) (PSI 1-6); higher = more stable;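 also: 24-mer peptide tiles fused after GFP, lentivirally expressed, FACS-sorted into six equal bins by GFP/DsRed ratio, decoded by Illumina sequencing, PSI is the read-weighted mean bin number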
# Test Conditions: treatment: DMSO; c terminus: a fixed tail appended
Class assignment keyed on protein stability index, ranges lowest (below 3), middle (3 to below 4), highest (4 or more)

Primary Sequence: RVQGGCYRFDSSSCSSEDNLSLVC [DRICH1]
Group: lowest
//
Primary Sequence: AGAEPLPRNGDQWHEIRQGRLPRI [WEE1]
Group: middle
//
Primary Sequence: AKMGATKEEREDTPIQLQELLALE [TCAP]
Group: highest
//
Primary Sequence: QESYENVDSLESHIPSQEVPGTQV [ZNF263]
Group: highest
//
Primary Sequence: KQIKAGAYDFPSPEWDTVTPEAKD [CAMK2A]
Group: highest

Kindly state the category for this sequence: QAAKLLGSMEQVSSHFLEQTLDKK [INTS4] middle

Kindly state the category for this sequence: LLYNRSNNKYSYTSNSDDNMLKNI [KCTD10] lowest

###

I'd appreciate it if you could supply protein stability index values for the items below.
# Assay Notes: protein stability index of a GFP-peptide fusion (GPS, HEK-293T) (PSI 1-6); higher = more stable
# Test Conditions: treatment: MLN4924 1 uM, 8 h; c terminus: a fixed tail appended

Primary Sequence: TEPMAWNETADLGLDIGAQGEPLG [CTNNB1]
protein stability index: 5.25

Please give protein stability index for each item listed below.
1. GEPQQDCCVKTELLGEETPMAADE [EHMT1]
2. RKKDKTWMHTPEALSKHFIPYNAK [GULP1]
3. QSLLQPKSSSVDSELTSLCQSVLE [SMG5]
4. SHSRERPYKCVQPDCGKAFVSRYK [PLAGL1]
5. EHRVAGIFPRLSFKDKSTYIESST [CLPTM1]
6. FISQVTVLKYFSHYMEENLMDGGD [PLK2]

1. 5.53
2. 2.99
3. 3.94
4. 3.37
5. 2.93
6. 2.3

###

I'd appreciate it if you could supply protein stability index values for the items below.
# Assay Notes: protein stability index of a GFP-peptide fusion (GPS, HEK-293T) (PSI 1-6); higher = more stable
# Test Conditions: treatment: DMSO; c terminus: a fixed tail appended

Primary Sequence: RAQMIRNEYRKLHPVLHKEEKQHL [TRIM43]
protein stability index: 3
//
Primary Sequence: EIPERRDSGVGASLTRSNRHRLRW [DLC1]
protein stability index: 4.17
//
Primary Sequence: FSGHFLCTSSWDKNLKIWNVHTGE [WDR88]
protein stability index: 2.71

Please give protein stability index for each item listed below.
1. QCGETMKETVNVKTVCGYYTSAGT [GMCL1]
2. KARVKPPEGYDVVAVYPNAKVELV [PDLIM4]
3. MMNQSMMGMNMNIGMSAAGMGLTG [CLINT1]
4. LCKLFPFLQKSSVGITVLNLCALS [EDNRA]
5. GGGLTGVSGSHFVGVDGVRAFLQT [PCDHGA10]
6. EVHSLTLSPPEQAAQPMQPLPESL [PLAGL1]

[3.7, 3.02, 2.46, 2.47, 2.82, 4.92]

Please give protein stability index for each item listed below.
1. TESEAHYSSQLSQVQSLITNVESQ [KRT34]
2. WNFDFVTETPLEGDFAWERVRGLG [CDKN1A]
3. IDRMFPEMSIHLSRPNGTSAMLLV [MED27]
4. DERRQLQHLKSKALRERWLLEGTP [PALM]
5. RRDGKWQNVHFHRSGSPTVPIKPP [CAMK2D]
6. EPKNYGSYSTQASAAAATAELLKK [SCAMP3]
7. THPVTNTTEKQRLVKKLQDSVLER [GOLPH3L]

[4.83, 2.54, 2.65, 3.54, 3.32, 4.84, 4.13]

Please give protein stability index for each item listed below.
1. HNISHMSMDIARGLMVTCGTDRIV [WDFY1]
2. AASLVTMGIVNLNIHMNFTHICRS [SLC2A12]
3. ERTKSRLVNTSENLSKSRKILRSM [VTI1B]

1: 2.26; 2: 3.46; 3: 3.79

Values from the supplement of paper PMC10567573
